# System: SR leukemia
# EXPERIMENTAL_DETAILS: NCI tumour cell line growth inhibition, 48 h
Documented TGI across a set of compounds

Worked cases, TGI given:
>>> df
                                   compound  endpoint_name    result
0         Cc1ccc2c(c1)nc1n2C(N)=Nc2ccccc2S1            TGI  > 100 µM
1  COc1ccccc1C(=O)NCC1CCCN2CCCCC12 (stereo not drawn)            TGI  > 100 µM
2  CC(C)=CC(=O)c1[nH]c2ccccc2c1CC(=O)NCCc1cncn1C            TGI     68 µM

Name the reported TGI value associated with the compound CC(Oc1ccccc1)C(=O)NNC(=O)OC(C)(C)C (stereo not drawn)
> 100 µM

Same question for COc1ccc(NCC(=O)Nn2c(-c3ccccc3)nc3ccccc3c2=O)cc1 please.
> 100 µM

Same question for O=C1N(Cc2ccccc2Cl)c2ccccc2C12NN=C(c1cccc(Cl)c1)S2 (stereo not drawn) please.
5.67 µM

Same question for O=C1CSC(c2ccc(Cl)cc2Cl)N1c1ccc(Oc2ccc(Cl)cc2)c(Cl)c1 (stereo not drawn) please.
42.8 µM

Same question for OC1(c2ccc(Cl)cc2)c2ccccc2-c2nc3ccccc3n21 (stereo not drawn) please.
> 100 µM

Same question for COc1ccc(C(=O)C#Cc2c[nH]c(=O)[nH]c2=O)cc1 please.
8.38 µM

Same question for O=C(CCCN1CCC(C(O)c2ccc(F)cc2)CC1)c1ccc(F)cc1 (stereo not drawn) please.
201 µM

Same question for CCN1CCC(CNC(=O)c2ccc(N)cc2)N1CC (stereo not drawn) please.
> 100 µM

Same question for C[C@H](CCC1SC1(C)C)C1CCC2(C)C3=C(CC[C@]12C)[C@@]1(C)CC[C@H](O)C(C)(C)C1CC3 (stereo partly drawn) please.
> 100 µM

Same question for COC(=O)Cc1cc(=O)[nH]c2c1C(=O)CCC2 please.
> 100 µM

Same question for CCn1c2ccccc2c2c(-c3ccccc3)cc3c(c21)C(=O)N(c1ccccc1)C3=O please.
> 100 µM

These measurements were taken from PubChem BioAssay (NCI).
